Data provenance: paper PMC3898987

# Target: 5-HT3A receptor Y73A (Homo sapiens, UniProt P46098, Y68A)
# Test method notes: FlexStation membrane potential dye functional assay, HEK293 cells
# Measurement parameters: inhibition of 5-HT (EC50 concentration) response, 45 min preincubation, 5-HT3A Y73A
pIC50: −log10 of the molar value.
Quantity measured: pIC50

[[record]]
smiles_record = "O=C1c2cccc3c2[C@H](CCC3)CN1[C@@H]1CN2CCC1CC2"
target = "5-HT3A receptor Y73A (Homo sapiens, UniProt P46098, Y68A)"
measurement = 7.88


---

# Target: 5-HT3A receptor D165K (Homo sapiens, UniProt P46098, D160K)
# Test method notes: radioligand saturation binding, transfected HEK293 membranes
# Measurement parameters: [3H]-palonosetron saturation, 5-HT3A D165K, 4 °C, 24 h
pKd: −log10 of the molar value.
Quantity measured: pKd

[[record]]
smiles_record = "O=C1c2cccc3c2[C@H](CCC3)CN1[C@@H]1CN2CCC1CC2"
quantity_measured = "pKd"
measurement = 9.44


---

# Target: WT 5-HT3A receptor (Homo sapiens, UniProt P46098)
# Sequence (P46098 24-478): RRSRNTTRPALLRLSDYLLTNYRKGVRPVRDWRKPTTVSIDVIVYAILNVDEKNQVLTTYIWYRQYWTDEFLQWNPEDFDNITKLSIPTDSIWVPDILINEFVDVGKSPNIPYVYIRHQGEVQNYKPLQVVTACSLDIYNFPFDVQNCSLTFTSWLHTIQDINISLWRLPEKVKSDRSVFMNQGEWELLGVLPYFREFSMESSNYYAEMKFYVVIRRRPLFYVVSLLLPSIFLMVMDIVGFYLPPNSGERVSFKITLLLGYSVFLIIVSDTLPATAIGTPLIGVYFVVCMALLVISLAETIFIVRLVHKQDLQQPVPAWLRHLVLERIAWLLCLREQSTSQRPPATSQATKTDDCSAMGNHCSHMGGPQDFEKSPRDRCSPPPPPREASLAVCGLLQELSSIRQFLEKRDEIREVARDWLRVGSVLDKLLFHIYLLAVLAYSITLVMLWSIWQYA
pKd: −log10 of the molar value.
Quantity measured: pKd

[[record]]
smiles_record = "O=C1c2cccc3c2[C@H](CCC3)CN1[C@@H]1CN2CCC1CC2"
measurement = 9.49


---

# Target: 5-HT3A receptor D165A (Homo sapiens, UniProt P46098, D160A)
# Test method notes: cell-based
Quantity measured: IC50 (nM)

[[record]]
smiles_record = "O=C1c2cccc3c2[C@H](CCC3)CN1[C@@H]1CN2CCC1CC2"
unit_tag = "nM"
measurement = 1.33


---

# Target: 5-HT3AB receptor, 5-HT3B subunit I183A (Homo sapiens, UniProt O95264+P46098, I176A)
# Sequence (P46098 24-478): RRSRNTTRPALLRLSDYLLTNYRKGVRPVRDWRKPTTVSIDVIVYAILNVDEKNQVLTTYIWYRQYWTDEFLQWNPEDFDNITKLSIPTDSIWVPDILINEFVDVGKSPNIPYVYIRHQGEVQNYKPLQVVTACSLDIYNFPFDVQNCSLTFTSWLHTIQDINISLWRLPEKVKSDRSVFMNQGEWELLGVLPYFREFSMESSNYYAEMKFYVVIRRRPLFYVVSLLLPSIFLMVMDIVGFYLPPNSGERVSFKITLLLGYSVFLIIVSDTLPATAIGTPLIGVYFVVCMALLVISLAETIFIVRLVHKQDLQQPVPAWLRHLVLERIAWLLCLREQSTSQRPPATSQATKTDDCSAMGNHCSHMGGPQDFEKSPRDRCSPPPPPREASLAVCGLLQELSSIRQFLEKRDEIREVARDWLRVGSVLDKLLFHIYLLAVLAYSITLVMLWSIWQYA
# Sequence (O95264 22-441 I176A): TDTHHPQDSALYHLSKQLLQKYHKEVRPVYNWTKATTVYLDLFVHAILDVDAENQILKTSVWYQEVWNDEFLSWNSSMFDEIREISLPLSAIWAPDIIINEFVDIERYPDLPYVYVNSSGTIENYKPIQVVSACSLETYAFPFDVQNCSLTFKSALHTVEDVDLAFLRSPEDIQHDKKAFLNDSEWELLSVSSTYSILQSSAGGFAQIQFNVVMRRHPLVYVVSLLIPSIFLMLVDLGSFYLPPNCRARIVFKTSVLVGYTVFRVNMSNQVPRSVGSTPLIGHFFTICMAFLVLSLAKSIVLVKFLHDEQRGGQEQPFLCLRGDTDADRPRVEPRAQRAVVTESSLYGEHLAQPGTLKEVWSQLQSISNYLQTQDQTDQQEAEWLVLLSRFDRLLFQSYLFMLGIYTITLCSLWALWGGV
# Test method notes: cell-based
Quantity measured: IC50 (nM)

[[record]]
smiles_record = "O=C1c2cccc3c2[C@H](CCC3)CN1[C@@H]1CN2CCC1CC2"
quantity_measured = "IC50"
measurement = 0.34

